Please respond with reported pKd for every item in the list.
Measurement Target: T1, cynomolgus CD3 epsilon (cynomolgus monkey, UniProt Q95LI5 22-117, limits assumed)
T1 construct: Recombinant protein; also called cyno CD3E
T1 sequence: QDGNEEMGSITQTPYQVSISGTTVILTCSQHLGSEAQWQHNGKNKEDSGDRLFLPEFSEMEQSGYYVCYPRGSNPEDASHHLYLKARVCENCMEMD
Protocol Summary: SPR (Biacore), antibody captured, cynomolgus CD3 epsilon analyte
Numbers only, as −log10 of the molar value.

[[record]]
binder = "SRP 2037-B10 Y55D/LC6 (antibody, human IgG1, kappa, V domains shown, human IgG1, kappa) VH: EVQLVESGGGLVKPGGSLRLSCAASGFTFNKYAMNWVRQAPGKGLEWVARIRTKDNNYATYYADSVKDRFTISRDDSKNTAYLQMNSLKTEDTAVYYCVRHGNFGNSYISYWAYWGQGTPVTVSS VL: DIQMTQSPSSLSASVGDRVTITCGSSTGAVTSGYYPNWLQQKPGQAPRGLIGGTKFLAPGVPSRFSGSLSGGKATLTISSLQPEDFATYYCALWYSNRWVFGGGTKVEIKR"
quantitative_readout = 8.68


Batch: pKd for all items listed.
1. 2037-B10_Hc-F104D (antibody, human IgG1, lambda, V domains shown, human IgG1, lambda; also called SRP 2037 F104D; 2037-B10_VH-F104D) VH: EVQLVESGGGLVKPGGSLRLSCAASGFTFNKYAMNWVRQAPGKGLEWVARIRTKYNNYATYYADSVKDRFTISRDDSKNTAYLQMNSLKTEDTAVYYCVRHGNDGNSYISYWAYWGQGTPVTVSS VL: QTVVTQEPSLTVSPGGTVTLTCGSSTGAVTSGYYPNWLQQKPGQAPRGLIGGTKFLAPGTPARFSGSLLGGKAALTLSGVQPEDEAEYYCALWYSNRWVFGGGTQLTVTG
2. SRP 2037-B10 F29D/LC6 (antibody, human IgG1, kappa, V domains shown, human IgG1, kappa) VH: EVQLVESGGGLVKPGGSLRLSCAASGFTDNKYAMNWVRQAPGKGLEWVARIRTKYNNYATYYADSVKDRFTISRDDSKNTAYLQMNSLKTEDTAVYYCVRHGNFGNSYISYWAYWGQGTPVTVSS VL: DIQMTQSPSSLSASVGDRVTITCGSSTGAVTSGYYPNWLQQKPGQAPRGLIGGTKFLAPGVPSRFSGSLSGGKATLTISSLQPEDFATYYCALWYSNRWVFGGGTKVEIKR
3. 2037-B10_Hc-F29D (antibody, human IgG1, lambda, V domains shown, human IgG1, lambda; also called SRP 2037 F29D; 2037-B10_VH-F29D) VH: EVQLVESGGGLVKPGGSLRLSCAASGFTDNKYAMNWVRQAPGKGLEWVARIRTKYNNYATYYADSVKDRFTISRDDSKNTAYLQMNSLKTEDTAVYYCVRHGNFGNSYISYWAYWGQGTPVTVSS VL: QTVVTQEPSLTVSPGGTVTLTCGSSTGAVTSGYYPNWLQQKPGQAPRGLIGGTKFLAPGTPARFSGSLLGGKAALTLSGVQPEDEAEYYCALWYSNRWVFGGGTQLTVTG
4. SRP 2037-B10 Y61D/LC6 (antibody, human IgG1, kappa, V domains shown, human IgG1, kappa) VH: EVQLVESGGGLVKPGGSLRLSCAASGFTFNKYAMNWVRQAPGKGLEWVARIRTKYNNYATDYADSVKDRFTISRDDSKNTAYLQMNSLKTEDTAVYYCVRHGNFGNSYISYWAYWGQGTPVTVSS VL: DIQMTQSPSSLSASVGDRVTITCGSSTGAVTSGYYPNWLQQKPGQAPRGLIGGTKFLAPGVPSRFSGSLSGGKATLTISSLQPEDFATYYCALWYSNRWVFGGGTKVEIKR

Key:
1: 8.19; 2: 8.23; 3: 8.57; 4: 8.40
